From: ChEMBL document CHEMBL4610129

- Protocol: MRT (0 to t) in Sprague-Dawley rat at 5 mg/kg, po
- Format: ADME, organism-based
- Test context: in vivo

{"Item smiles": "C[C@@H](Nc1nc2c(cnn2C(C)(C)C)c(=O)n1Cc1ccc(F)cc1)c1ccc(Cl)cc1", "MRT last [h]": 6.88}

----------
- Target desc: cAMP and cAMP-inhibited cGMP 3',5'-cyclic phosphodiesterase 10A (Homo sapiens, UniProt Q9Y233)
- Sequence (Q9Y233 whole entry): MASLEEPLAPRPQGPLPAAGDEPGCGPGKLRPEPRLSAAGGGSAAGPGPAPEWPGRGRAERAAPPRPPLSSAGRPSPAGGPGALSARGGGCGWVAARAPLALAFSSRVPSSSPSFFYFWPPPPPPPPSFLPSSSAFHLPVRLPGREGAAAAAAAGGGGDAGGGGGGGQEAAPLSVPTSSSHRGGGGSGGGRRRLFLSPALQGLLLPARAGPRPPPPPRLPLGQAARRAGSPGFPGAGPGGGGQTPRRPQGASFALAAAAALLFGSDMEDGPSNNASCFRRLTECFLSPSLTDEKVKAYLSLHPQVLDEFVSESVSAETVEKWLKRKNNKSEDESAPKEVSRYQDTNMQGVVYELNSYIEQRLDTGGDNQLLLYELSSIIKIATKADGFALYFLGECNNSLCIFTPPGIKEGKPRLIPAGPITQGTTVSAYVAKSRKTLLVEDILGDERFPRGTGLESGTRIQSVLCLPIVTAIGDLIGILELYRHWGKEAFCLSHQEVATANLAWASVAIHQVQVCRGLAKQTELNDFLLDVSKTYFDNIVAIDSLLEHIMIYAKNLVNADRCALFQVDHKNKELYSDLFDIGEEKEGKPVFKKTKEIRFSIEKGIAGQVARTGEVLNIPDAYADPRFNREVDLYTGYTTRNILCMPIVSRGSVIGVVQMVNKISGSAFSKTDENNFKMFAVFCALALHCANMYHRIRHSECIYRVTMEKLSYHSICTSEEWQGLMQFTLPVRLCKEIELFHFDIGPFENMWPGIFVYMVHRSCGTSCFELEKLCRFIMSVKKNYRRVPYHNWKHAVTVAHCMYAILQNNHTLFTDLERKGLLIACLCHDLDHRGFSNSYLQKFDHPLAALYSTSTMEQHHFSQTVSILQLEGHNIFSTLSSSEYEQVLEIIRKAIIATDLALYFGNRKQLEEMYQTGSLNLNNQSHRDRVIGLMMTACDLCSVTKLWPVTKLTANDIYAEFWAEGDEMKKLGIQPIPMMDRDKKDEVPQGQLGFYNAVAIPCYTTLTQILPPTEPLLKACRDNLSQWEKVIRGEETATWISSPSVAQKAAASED
pIC50: −log10 of the molar value.
Property: pIC50

{"Item smiles": "C[C@@H](Nc1nc2c(cnn2C(C)(C)C)c(=O)n1Cc1ccc(F)cc1)c1ccc(Cl)cc1", "Recorded value": 5.75}

----------
- Protocol: Acute toxicity in mouse
- Format: organism-based
- Test context: in vivo
Property: MTD

{"Item smiles": "C[C@@H](Nc1nc2c(cnn2C(C)(C)C)c(=O)n1Cc1ccc(F)cc1)c1ccc(Cl)cc1", "Recorded value": "> 1500 mg/kg"}

----------
- Target desc: Cone cGMP-specific 3',5'-cyclic phosphodiesterase subunit alpha' (Homo sapiens, UniProt P51160)
- Protocol: Inhibition of PDE6C (1 to 858 residues) (unknown origin) using [3H]-cGMP substrate incubated for 15 mins by liquid scintillation counting method relative to control
Property: IC50

{"Item smiles": "C[C@@H](Nc1nc2c(cnn2C(C)(C)C)c(=O)n1Cc1ccc(F)cc1)c1ccc(Cl)cc1", "Recorded value": "> 10 µM"}

----------
- Target desc: Cytochrome P450 3A4 (Homo sapiens, UniProt P08684)
- Sequence (P08684 whole entry): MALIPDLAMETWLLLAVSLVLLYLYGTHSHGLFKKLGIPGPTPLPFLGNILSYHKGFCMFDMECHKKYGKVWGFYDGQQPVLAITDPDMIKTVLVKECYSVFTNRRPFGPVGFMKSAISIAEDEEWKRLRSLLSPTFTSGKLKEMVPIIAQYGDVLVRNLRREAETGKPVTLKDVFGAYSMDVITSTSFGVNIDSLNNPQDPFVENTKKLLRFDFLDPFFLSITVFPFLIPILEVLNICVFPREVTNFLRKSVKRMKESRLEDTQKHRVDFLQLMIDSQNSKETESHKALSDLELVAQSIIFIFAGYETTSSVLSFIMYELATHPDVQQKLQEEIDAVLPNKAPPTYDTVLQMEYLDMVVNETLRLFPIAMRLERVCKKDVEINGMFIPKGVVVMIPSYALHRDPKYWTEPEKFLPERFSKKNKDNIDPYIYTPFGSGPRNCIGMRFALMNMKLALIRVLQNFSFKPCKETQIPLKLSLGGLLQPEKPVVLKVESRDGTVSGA
- Protocol: Inhibition of human CYP3A4 using midazolam as substrate
- Type: ADME
pIC50: −log10 of the molar value.
Property: pIC50

{"Item smiles": "C[C@@H](Nc1nc2c(cnn2C(C)(C)C)c(=O)n1Cc1ccc(F)cc1)c1ccc(Cl)cc1", "Recorded value": "< 4.60"}

----------
- Target desc: Voltage-gated inwardly rectifying potassium channel KCNH2 (Homo sapiens, UniProt Q12809)
- Sequence (Q12809 whole entry): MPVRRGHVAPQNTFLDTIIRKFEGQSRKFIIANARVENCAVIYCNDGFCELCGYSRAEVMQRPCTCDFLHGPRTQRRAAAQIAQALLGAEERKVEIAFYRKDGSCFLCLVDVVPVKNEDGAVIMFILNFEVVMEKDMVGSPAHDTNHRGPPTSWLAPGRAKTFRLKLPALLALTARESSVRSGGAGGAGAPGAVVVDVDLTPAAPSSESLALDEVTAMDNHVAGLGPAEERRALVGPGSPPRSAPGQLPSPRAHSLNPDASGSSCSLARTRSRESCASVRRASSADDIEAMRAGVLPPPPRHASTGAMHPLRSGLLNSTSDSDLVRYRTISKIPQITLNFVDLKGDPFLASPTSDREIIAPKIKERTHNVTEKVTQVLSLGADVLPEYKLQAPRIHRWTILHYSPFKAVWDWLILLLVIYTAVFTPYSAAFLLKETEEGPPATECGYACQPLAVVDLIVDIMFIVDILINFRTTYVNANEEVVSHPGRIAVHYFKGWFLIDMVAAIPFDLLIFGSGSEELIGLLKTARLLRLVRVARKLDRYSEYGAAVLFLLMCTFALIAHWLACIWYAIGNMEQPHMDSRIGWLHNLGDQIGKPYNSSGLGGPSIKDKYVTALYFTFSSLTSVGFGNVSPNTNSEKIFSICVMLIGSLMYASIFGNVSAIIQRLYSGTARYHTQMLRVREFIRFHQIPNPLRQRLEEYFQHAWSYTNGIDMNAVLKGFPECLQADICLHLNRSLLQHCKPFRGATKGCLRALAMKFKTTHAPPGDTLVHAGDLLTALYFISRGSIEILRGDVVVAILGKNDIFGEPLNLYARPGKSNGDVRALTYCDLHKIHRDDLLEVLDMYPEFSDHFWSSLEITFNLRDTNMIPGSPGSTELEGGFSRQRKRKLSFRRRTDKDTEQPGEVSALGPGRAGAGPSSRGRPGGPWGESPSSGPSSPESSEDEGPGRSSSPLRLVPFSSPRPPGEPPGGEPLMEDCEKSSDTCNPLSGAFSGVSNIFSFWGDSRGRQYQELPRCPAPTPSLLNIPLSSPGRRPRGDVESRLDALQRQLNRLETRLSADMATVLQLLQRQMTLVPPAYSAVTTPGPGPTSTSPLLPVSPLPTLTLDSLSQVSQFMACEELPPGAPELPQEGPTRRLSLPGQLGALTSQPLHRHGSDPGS

{"Item smiles": "C[C@@H](Nc1nc2c(cnn2C(C)(C)C)c(=O)n1Cc1ccc(F)cc1)c1ccc(Cl)cc1", "Target desc": "Voltage-gated inwardly rectifying potassium channel KCNH2 (Homo sapiens, UniProt Q12809)", "Unit text": "µM", "IC50": 11}

----------
- Protocol: Cmax in Sprague-Dawley rat at 5 mg/kg, po
- Assay type: ADME, organism-based
- Design: dose 5 mg/kg, route oral
- Test context: in vivo

{"Item smiles": "C[C@@H](Nc1nc2c(cnn2C(C)(C)C)c(=O)n1Cc1ccc(F)cc1)c1ccc(Cl)cc1", "Cmax, µg/mL": 0.169}

----------
- Target desc: Cytochrome P450 2C9 (Homo sapiens, UniProt P11712)
- Sequence (P11712 whole entry): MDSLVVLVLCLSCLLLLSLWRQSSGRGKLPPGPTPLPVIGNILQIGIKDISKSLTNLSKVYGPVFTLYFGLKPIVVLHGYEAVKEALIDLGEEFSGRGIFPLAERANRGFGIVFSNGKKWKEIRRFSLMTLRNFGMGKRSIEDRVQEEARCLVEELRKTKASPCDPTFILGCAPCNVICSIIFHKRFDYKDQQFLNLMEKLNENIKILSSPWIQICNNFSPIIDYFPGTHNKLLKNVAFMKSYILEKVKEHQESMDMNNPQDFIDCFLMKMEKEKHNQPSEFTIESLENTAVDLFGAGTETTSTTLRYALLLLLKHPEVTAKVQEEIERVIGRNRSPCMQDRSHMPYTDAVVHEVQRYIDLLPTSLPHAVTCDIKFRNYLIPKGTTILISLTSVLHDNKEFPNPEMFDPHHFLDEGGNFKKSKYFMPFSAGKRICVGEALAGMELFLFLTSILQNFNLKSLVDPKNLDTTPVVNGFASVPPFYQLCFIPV
pIC50: −log10 of the molar value.
Property: pIC50

{"Item smiles": "C[C@@H](Nc1nc2c(cnn2C(C)(C)C)c(=O)n1Cc1ccc(F)cc1)c1ccc(Cl)cc1", "Target desc": "Cytochrome P450 2C9 (Homo sapiens, UniProt P11712)", "Recorded value": 5.18}

----------
- Protocol: Tmax in Sprague-Dawley rat at 5 mg/kg, po
- Format: ADME, organism-based
- Test context: in vivo

{"Item smiles": "C[C@@H](Nc1nc2c(cnn2C(C)(C)C)c(=O)n1Cc1ccc(F)cc1)c1ccc(Cl)cc1", "Unit text": "h", "Tmax": 4}

----------
- Protocol: AUC (0 to infinity) in Sprague-Dawley rat at 5 mg/kg, po
- Assay type: ADME, organism-based
- Set-up: dose 5 mg/kg, time infinity, route oral
- Test context: in vivo
Property: AUC(0-inf)

{"Item smiles": "C[C@@H](Nc1nc2c(cnn2C(C)(C)C)c(=O)n1Cc1ccc(F)cc1)c1ccc(Cl)cc1", "Property": "AUC(0-inf)", "Recorded value": "1320 ng·h/mL"}

----------
- Target desc: 3',5'-cyclic-AMP phosphodiesterase 4D (Homo sapiens)
- Sequence (Q08499 whole entry): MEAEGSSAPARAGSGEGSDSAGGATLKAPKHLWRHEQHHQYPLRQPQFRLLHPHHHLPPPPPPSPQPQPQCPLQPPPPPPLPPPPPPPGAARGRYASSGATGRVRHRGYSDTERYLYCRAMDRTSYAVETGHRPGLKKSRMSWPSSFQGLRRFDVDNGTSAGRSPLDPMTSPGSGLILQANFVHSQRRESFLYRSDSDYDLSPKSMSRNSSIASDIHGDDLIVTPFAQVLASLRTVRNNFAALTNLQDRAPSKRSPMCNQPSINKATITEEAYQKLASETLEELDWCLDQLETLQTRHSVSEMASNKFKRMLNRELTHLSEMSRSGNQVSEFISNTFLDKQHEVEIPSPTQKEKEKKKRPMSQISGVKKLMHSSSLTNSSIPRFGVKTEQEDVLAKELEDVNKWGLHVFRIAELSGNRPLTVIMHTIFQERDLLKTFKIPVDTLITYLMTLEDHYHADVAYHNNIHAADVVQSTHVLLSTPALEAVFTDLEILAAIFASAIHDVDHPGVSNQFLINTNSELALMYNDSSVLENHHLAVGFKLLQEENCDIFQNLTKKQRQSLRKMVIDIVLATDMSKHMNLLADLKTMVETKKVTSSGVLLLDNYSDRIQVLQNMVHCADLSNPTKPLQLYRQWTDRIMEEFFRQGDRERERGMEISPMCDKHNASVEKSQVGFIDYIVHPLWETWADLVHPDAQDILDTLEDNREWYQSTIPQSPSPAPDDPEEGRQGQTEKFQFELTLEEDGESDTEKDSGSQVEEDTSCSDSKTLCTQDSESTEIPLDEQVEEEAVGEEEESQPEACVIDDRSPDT
pIC50: −log10 of the molar value.
Property: pIC50

{"Item smiles": "C[C@@H](Nc1nc2c(cnn2C(C)(C)C)c(=O)n1Cc1ccc(F)cc1)c1ccc(Cl)cc1", "Property": "pIC50", "Recorded value": 6.16}

----------
- Target desc: UniProt Q13946
- Protocol: Inhibition of PDE7A1 (130 to 482 residues) (unknown origin) using [3H]-cAMP substrate incubated for 15 mins by liquid scintillation counting method relative to control

{"Item smiles": "C[C@@H](Nc1nc2c(cnn2C(C)(C)C)c(=O)n1Cc1ccc(F)cc1)c1ccc(Cl)cc1", "Target desc": "UniProt Q13946", "IC50": "> 10 µM"}

----------
- Target desc: cGMP-dependent 3',5'-cyclic phosphodiesterase (Homo sapiens, UniProt O00408)
Property: IC50

{"Item smiles": "C[C@@H](Nc1nc2c(cnn2C(C)(C)C)c(=O)n1Cc1ccc(F)cc1)c1ccc(Cl)cc1", "Recorded value": "> 10 µM"}

----------
- Protocol: AUC (0 to t) in Sprague-Dawley rat at 5 mg/kg, po
- Assay type: ADME, organism-based
- Test context: in vivo
Property: AUC(0-t)

{"Item smiles": "C[C@@H](Nc1nc2c(cnn2C(C)(C)C)c(=O)n1Cc1ccc(F)cc1)c1ccc(Cl)cc1", "Recorded value": "1300 ng·h/mL"}

----------
- Target desc: Cytochrome P450 2D6 (Homo sapiens)

{"Item smiles": "C[C@@H](Nc1nc2c(cnn2C(C)(C)C)c(=O)n1Cc1ccc(F)cc1)c1ccc(Cl)cc1", "IC50": "> 25 µM"}

----------
- Target desc: High affinity cAMP-specific and IBMX-insensitive 3',5'-cyclic phosphodiesterase 8A (Homo sapiens, UniProt O60658)
pIC50: −log10 of the molar value.
Property: pIC50

{"Item smiles": "C[C@@H](Nc1nc2c(cnn2C(C)(C)C)c(=O)n1Cc1ccc(F)cc1)c1ccc(Cl)cc1", "Property": "pIC50", "Recorded value": 5.69}

----------
- Protocol: Oral bioavailability in Sprague-Dawley rat at 5 mg/kg
- Type: ADME, organism-based
- Test context: in vivo

{"Item smiles": "C[C@@H](Nc1nc2c(cnn2C(C)(C)C)c(=O)n1Cc1ccc(F)cc1)c1ccc(Cl)cc1", "bioavailability / %": 34}

----------
- Target desc: UniProtKB O76083
- Protocol: Inhibition of PDE9A (181 to 506 residues) (unknown origin) using [3H]-cGMP substrate incubated for 15 mins by liquid scintillation counting method

{"Item smiles": "C[C@@H](Nc1nc2c(cnn2C2CCCC2)c(=O)n1Cc1ccccc1)c1ccc(Cl)cc1", "IC50": "> 10 µM"}

----------
- Target desc: Cytochrome P450 1A2 (Homo sapiens)
- Protocol: Inhibition of human CYP1A2
- Format: ADME
Property: IC50

{"Item smiles": "C[C@@H](Nc1nc2c(cnn2C(C)(C)C)c(=O)n1Cc1ccc(F)cc1)c1ccc(Cl)cc1", "Property": "IC50", "Recorded value": "> 25 µM"}

----------
- Protocol: AUC (0 to infinity) in Sprague-Dawley rat at 2.5 mg/kg, iv
- Format: ADME, organism-based
- Parameters: dose 2.5 mg/kg, time infinity, route intravenous
- Test context: in vivo

{"Item smiles": "C[C@@H](Nc1nc2c(cnn2C(C)(C)C)c(=O)n1Cc1ccc(F)cc1)c1ccc(Cl)cc1", "AUC(0-inf)": "2100 ng·h/mL"}

----------
Recorded IC50 values for a group of molecules are listed next.
- Target desc: Dual specificity calcium/calmodulin-dependent 3',5'-cyclic nucleotide phosphodiesterase 1C (Homo sapiens)
- Sequence (Q14123 whole entry, the tested form may be a part): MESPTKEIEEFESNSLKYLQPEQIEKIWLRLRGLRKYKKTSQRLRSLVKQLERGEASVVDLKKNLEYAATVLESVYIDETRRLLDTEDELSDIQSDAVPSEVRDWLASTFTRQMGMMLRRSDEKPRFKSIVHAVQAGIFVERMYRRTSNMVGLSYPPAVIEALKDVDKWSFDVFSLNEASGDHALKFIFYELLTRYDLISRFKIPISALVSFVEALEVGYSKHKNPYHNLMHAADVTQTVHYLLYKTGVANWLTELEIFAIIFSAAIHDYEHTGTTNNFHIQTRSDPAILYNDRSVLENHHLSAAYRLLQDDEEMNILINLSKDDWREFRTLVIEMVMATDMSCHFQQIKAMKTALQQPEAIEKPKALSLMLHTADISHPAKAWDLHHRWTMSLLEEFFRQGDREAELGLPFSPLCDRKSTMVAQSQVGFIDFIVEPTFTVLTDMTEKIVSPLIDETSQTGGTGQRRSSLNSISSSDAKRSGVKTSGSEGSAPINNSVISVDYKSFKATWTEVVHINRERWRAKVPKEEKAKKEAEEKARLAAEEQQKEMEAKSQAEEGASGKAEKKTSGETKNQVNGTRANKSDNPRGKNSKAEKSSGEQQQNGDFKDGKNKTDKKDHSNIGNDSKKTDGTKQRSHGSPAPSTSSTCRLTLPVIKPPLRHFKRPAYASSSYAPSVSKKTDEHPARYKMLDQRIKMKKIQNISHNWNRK
- Protocol: Inhibition of PDE1C2 (147 to 531 residues) (unknown origin) using [3H]-cGMP substrate incubated for 15 mins by liquid scintillation counting method
Property: IC50 (nM)

{"Item smiles": "C[C@@H](Nc1nc2c(cnn2C(C)(C)C)c(=O)n1Cc1ccc2c(c1)OCO2)c1ccc(Cl)cc1", "Recorded value": 27}
{"Item smiles": "CC(C)n1ncc2c(=O)n(Cc3ccc4c(c3)OCO4)c(N[C@H](C)c3ccc(Cl)cc3)nc21", "Recorded value": 20}
{"Item smiles": "C[C@H](Nc1nc2c(cnn2C(C)(C)C)c(=O)n1Cc1ccccc1)c1ccc(F)cc1", "Recorded value": 245}
{"Item smiles": "C[C@@H](Nc1nc2c(cnn2C(C)(C)C)c(=O)n1Cc1ccccc1)c1ccc(Cl)cc1", "Recorded value": 1.5}
{"Item smiles": "C[C@@H](Nc1nc2c(cnn2C(C)(C)C)c(=O)n1Cc1ccccc1)c1ccc(F)cc1", "Recorded value": 2.6}
{"Item smiles": "C[C@H](Nc1nc2c(cnn2C(C)(C)C)c(=O)n1Cc1ccccc1)c1ccc(Cl)cc1", "Recorded value": 157}
{"Item smiles": "CC(C)n1ncc2c(=O)n(C)c(N[C@H](C)c3ccc(Cl)cc3)nc21", "Recorded value": 57}
{"Item smiles": "C[C@@H](Nc1nc2c(cnn2C2CCCC2)c(=O)n1Cc1ccccc1)c1ccc(Cl)cc1", "Recorded value": 4.7}
{"Item smiles": "CC(C)n1ncc2c(=O)n(Cc3ccccc3)c(N[C@H](C)c3ccc(Cl)cc3)nc21", "Recorded value": 0.9}
{"Item smiles": "C[C@@H](Nc1nc2c(cnn2C(C)(C)C)c(=O)n1C)c1ccc(Cl)cc1", "Recorded value": 65}
{"Item smiles": "C[C@@H](Nc1nc2c(cnn2C2CCCC2)c(=O)n1C)c1ccc(Cl)cc1", "Recorded value": 258}
